Source listed as PubChem BioAssay (Tox21).

procedure details: qHTS RealTime-Glo MT Cell Viability Assay in HepG2 cells - 40 hour (AID 1224870); also: nearly all actives have a fitted effect of over 50% in size
condition summary: RealTime-Glo luminescence; series mostly up to 76.8 µM
Inconclusive results are not listed. The source made the active and inactive calls. Calls follow the shape of the dose curve; as a rule, active = well fitted cell-killing curve with a large enough effect in the repeat runs; inconclusive = weak or mixed curves, or effect the other way; inactive = flat fitted curve, though single readings scatter.
Response enum: true (1) for active, false (0) for inactive

> print(dat)
                                   compound  assigned.category
1  Cc1nc2n(c(=O)c1CCN1CCC(c3noc4cc(F)ccc34)CC1)CCCC2          false (0)

## Input Just curious, what result did Clc1sc(Cl)c(Cl)c1Cl get here?
## Output false (0)

## Input Call for entry CC(=O)Oc1cc2c(s1)CCN(C(C(=O)C1CC1)c1ccccc1F)C2 (stereo not given) :
## Output false (0)

## Input GET /call?item= CCCNCCC returns the recorded outcome of this test.
## Output false (0)

## Input Lab log entry: C=CC(=O)Nc1cc2c(Nc3ccc(F)c(Cl)c3)ncnc2cc1OCCCN1CCOCC1 — outcome as called in the assay?
## Output true (1)

## Input Outcome logged for Cc1c(C)c2c(c(C)c1OC(=O)c1cccnc1)CC[C@@](C)(CCC[C@H](C)CCC[C@H](C)CCCC(C)C)O2 in this assay:
## Output false (0)
